# RUN DESCRIPTION: binders of probe aFGF10 on microarray, primary screen, stem cell growth factor project, biochemical, small-molecule microarray, fluorescence 635/667 (AID 1071);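 also: score merges 667 nm spot intensity and signal to noise from triplicate slides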
# PROTOCOL CONDITIONS: higher = more signal
Listed below: composite z-score values for each entry.

Recorded results for 6 molecules are shown here.
[
  {
    "MOLECULE": "O=C1O[C@@H](c2ccccc2)[C@@H](c2ccccc2)N2[C@@H](c3ccc(O)cc3)[C@]3(C(=O)Nc4ccc(C#CC5(O)CCCCCC5)cc43)[C@@H](C(=O)NC[C@H](O)c3ccccc3)[C@H]12",
    "RESULT": 0.753
  },
  {
    "MOLECULE": "[N-]=[N+]=NCc1ccccc1C[C@@]1(C(=O)N2CCCCC2)N=C(c2ccc(OCCCO)cc2)O[C@@H]1c1ccccc1",
    "RESULT": 0.108
  },
  {
    "MOLECULE": "CCOC(=O)C1=C[C@@H](c2ccccc2)N(S(=O)(=O)c2ccc(C)cc2)[C@H]1c1ccccc1Cl",
    "RESULT": 1.1
  },
  {
    "MOLECULE": "COCCOC(=O)N1C(=O)[C@@]2(c3cc(C#CC4=CCCCC4)ccc31)[C@H](c1ccccc1OCCO)N1[C@H](c3ccccc3)[C@H](c3ccccc3)OC(=O)[C@H]1[C@@H]2C(=O)N1CCCCCCC1",
    "RESULT": 0.61
  },
  {
    "MOLECULE": "COCCCNC(=O)[C@]1(CCS(=O)(=O)c2ccccc2)N=C(c2ccc(OCCCO)cc2)O[C@@H]1c1ccccc1N=[N+]=[N-]",
    "RESULT": 1.11
  },
  {
    "MOLECULE": "C#CCN([C@@H](Cc1ccc(O)cc1)C(=O)OC)[C@@H](/C=C/C1CC1)[C@H](O)Cc1ccccc1",
    "RESULT": -0.37
  }
]

Prompt: Request the reported composite z-score associated with O=C1OCCC=C[C@H]2OC34C=CCN(Cn5nnc6ccccc65)C(=O)[C@H]3N(CCCCCCO)C(=O)[C@@H]4C12 (stereo partly drawn)
Completion: -0.612

Prompt: What value of measured composite z-score is listed for `COCCOC(=O)N1C(=O)[C@@]2(c3cc(C#CCC(C(=O)OC)C(=O)OC)ccc31)[C@H](C(=O)N1CCc3cc(OC)c(OC)cc3C1)[C@H]1C(=O)O[C@H](c3ccccc3)[C@H](c3ccccc3)N1[C@@H]2c1ccc(OCCO)cc1` ?
Completion: 0.411

Prompt: May I ask what composite z-score has been recorded for `O=C(NCCCCCNC(=O)/C(Cc1ccccc1)=N/O)OCc1ccccc1` ?
Completion: 0.293

* * *

# RUN DESCRIPTION: small-molecule microarray binders of probe aShh, primary screen, biochemical, biotinylated probe, 635/667 nm fluorescence (AID 1114);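 also: probe is biotin-labelled aShh protein from a stem cell growth factor screen; measures binding of labelled protein to compounds printed on the slide; score merges feature fluorescence at 667 nm with signal-to-noise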
# PROTOCOL CONDITIONS: higher = more signal
composite z-score below -0.05 gives FALSE; composite z-score at or above it gives TRUE.

Would you please look over these solved cases?
[
  {
    "COMPOUND": "COC(=O)c1ccc([C@H](NC(=O)c2ccco2)[C@]2(C)C[C@H]2C2CCCCC2)cc1",
    "ASSIGNED LABEL": "TRUE"
  },
  {
    "COMPOUND": "Cc1ccc(S[C@]2(C(=O)NCC(F)(F)F)CC(=O)N(Cc3ccccc3C(F)(F)F)[C@@H]2c2ccc(CO)cc2I)cc1",
    "ASSIGNED LABEL": "TRUE"
  },
  {
    "COMPOUND": "CO[C@H]1O[C@H](CO)[C@@H](OC(=O)Nc2ccccc2-c2ccccc2)[C@H](OC(=O)Nc2ccc3c(c2)OCO3)[C@H]1OC(=O)Nc1ccc2c(c1)OCO2",
    "ASSIGNED LABEL": "TRUE"
  },
  {
    "COMPOUND": "NC(=O)N1C(=O)C2C(C1=O)C1C=C(CCCO)C2C(c2cccs2)N1Cc1cccc(OC(F)(F)F)c1 (stereo not drawn)",
    "ASSIGNED LABEL": "TRUE"
  },
  {
    "COMPOUND": "COCCOC(=O)N1C(=O)[C@@]2(c3cc(C#CCCO)ccc31)[C@H](c1ccccc1OCCO)N1[C@H](c3ccccc3)[C@H](c3ccccc3)OC(=O)[C@H]1[C@@H]2C(=O)Nc1nc2ccccc2s1",
    "ASSIGNED LABEL": "TRUE"
  },
  {
    "COMPOUND": "N#Cc1ccc(NN2C(C(O)c3ccc(F)cc3)C=CC3C(=O)N(c4ccccc4)C(=O)C32)cc1 (stereo not drawn)",
    "ASSIGNED LABEL": "FALSE"
  },
  {
    "COMPOUND": "CCOC(=O)C[C@H]1[C@H](OC(=O)c2ccccc2-c2ccccc2)[C@@H](NC(=O)C2CCCCC2)c2cc(OCCCO)ccc2N1C(=O)Cc1ccc(OC)cc1",
    "ASSIGNED LABEL": "FALSE"
  },
  {
    "COMPOUND": "[N-]=[N+]=NCc1ccccc1[C@H]1OC(c2ccc(OCCCO)cc2)=N[C@@]1(CCS(=O)(=O)c1ccccc1)C(=O)NCC(O)CO (stereo partly drawn)",
    "ASSIGNED LABEL": "TRUE"
  },
  {
    "COMPOUND": "Cc1ccc(S[C@]2(C(=O)O)CC(=O)N(Cc3cc(C(F)(F)F)cc(C(F)(F)F)c3)[C@@H]2c2ccc(CO)cc2)cc1",
    "ASSIGNED LABEL": "TRUE"
  },
  {
    "COMPOUND": "CC(C)(C)OC(=O)CC[C@]1(C(=O)NCC(O)CO)N=C(c2ccc(OCCCO)cc2)O[C@H]1c1ccccc1 (stereo partly drawn)",
    "ASSIGNED LABEL": "FALSE"
  }
]

Prompt: Determine whether this compound has composite z-score no lower than -0.05: C[C@@H]1NC(=O)[C@@]23C(=O)N[C@@H](Cc4ccccc4)C2[C@H](C)[C@@]2(C)O[C@H]2C3/C=C/C/C=C\CNC(=O)[C@@H]2CCCN2C1=O (stereo partly drawn)
Completion: FALSE

Prompt: # bool: composite z-score of CC(C)C(CO)N1C(=O)[C@@H]2C3C(=O)OCCC/C=C\[C@H]3OC23C=CCN(C(C)(C)C)C(=O)[C@@H]13 (stereo partly drawn) >= -0.05
Completion: TRUE

Prompt: Kindly determine if composite z-score recorded for `[N-]=[N+]=Nc1ccccc1[C@H]1OC(c2ccc(OCCCO)cc2)=N[C@@]1(CCS(=O)(=O)c1ccccc1)C(=O)NCCN1CCOCC1` is above or exactly -0.05.
Completion: TRUE

Prompt: Is the recorded value of composite z-score equal to or greater than -0.05 for this compound? C=CCC(OC(C)=O)[C@@H]1[C@@H](N(Cc2ccc(-c3cccc(C(F)(F)F)c3)o2)C(=O)c2ccc(-c3ccccc3)cc2)c2cc(OCCCO)ccc2N1C(=O)c1ccc2ccccc2n1 (stereo partly drawn)
Completion: TRUE

Prompt: Textbook exercise: given the entry N#Cc1ccc(C(O)C2C=CC3C(=O)N(c4ccccc4)C(=O)C3N2Nc2ccccc2)cc1 (stereo not drawn) , state whether its composite z-score is greater than or equal to -0.05.
Completion: TRUE

Prompt: Can `COCCOC(=O)N1C(=O)[C@@]2(c3cc(C#CC4=CCCCC4)ccc31)[C@H](c1ccc(OCCO)cc1)N1[C@H](c3ccccc3)[C@H](c3ccccc3)OC(=O)[C@H]1[C@@H]2C(=O)N1CCN(c2ncccn2)CC1` be said to have composite z-score at or above -0.05?
Completion: TRUE

Prompt: Determine whether this compound has composite z-score no lower than -0.05: `C=C(COC)/C(=C/C[C@H](OC(=O)c1ccncc1)c1ccccc1OCCO)c1cnc2ccccc2c1`
Completion: FALSE

* * *

# RUN DESCRIPTION: COS7 lysate on small-molecule microarray, probe aHis, 635 nm (AID 1123);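 also: z-score combines 667nm fluorescence intensity with signal-to-noise per printed compound spot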
# PROTOCOL CONDITIONS: COS7 cell lysate, fluorescence, higher = more signal
QUANTITY KIND: composite z-score
Write no unit; give the number alone.

Known composite z-score results, listed for orientation:
[
  {
    "COMPOUND": "COc1ccc(CN(C2=CC[C@@]3(C(N)=O)C(=O)C(Cl)=C(Cl)C(=O)[C@@]3(C#N)C2)S(=O)(=O)c2ccc(Br)cc2)cc1",
    "QUANTITY KIND": "composite z-score",
    "NUMERIC RESULT": 1.84
  },
  {
    "COMPOUND": "COCCOC(=O)N1C(=O)[C@@]2(c3cc(C#CC4=CCCCC4)ccc31)[C@H](c1ccc(OCCO)cc1)N1[C@H](c3ccccc3)[C@H](c3ccccc3)OC(=O)[C@H]1[C@@H]2C(=O)NC[C@H](O)c1ccccc1",
    "QUANTITY KIND": "composite z-score",
    "NUMERIC RESULT": 1.22
  },
  {
    "COMPOUND": "COCCOC(=O)N1C(=O)[C@@]2(c3cc(C#CCCO)ccc31)[C@H](c1ccccc1OCCO)N1[C@H](c3ccccc3)[C@H](c3ccccc3)OC(=O)[C@H]1[C@@H]2C(=O)Nc1nc2ccccc2s1",
    "QUANTITY KIND": "composite z-score",
    "NUMERIC RESULT": 2.02
  },
  {
    "COMPOUND": "CCOC(=O)C1=CC[C@@H](c2ccc(OCc3ccccc3)c(OC)c2)N(S(=O)(=O)c2ccc(C)cc2)[C@H]1c1ccc(SC)cc1",
    "QUANTITY KIND": "composite z-score",
    "NUMERIC RESULT": 2.53
  },
  {
    "COMPOUND": "O=C1OCC=C[C@H]2OC34C=CCN(c5ccc(Cl)cc5)C(=O)[C@H]3N(CCO)C(=O)[C@@H]4[C@@H]12 (stereo partly specified)",
    "QUANTITY KIND": "composite z-score",
    "NUMERIC RESULT": 2.81
  }
]

Note: attention shifts to another entry.
Prompt: # get_value(readout='composite z-score', item= `CC1=C([C@H](O)CCc2ccccc2)[C@H](CO)[C@@H]2C(=O)N(C)C(=O)[C@@H]2C1` )
Completion: 0.58
